Test: Toxicokinetics in the 4-week mini-pig toxicity study
Format: in vivo
Conditions: both sexes, Gottingen, minipig, plasma; Day 28, 450 mg/kg oral, average M/F minipigs
MEASURED_QUANTITY: Tmax (h)
Express your answer in h, writing the number without its unit.

Ask: Can you look up the measured Tmax of Fc1ccc2c3c([nH]c2c1)CCN(c1ccc2oc(N4CCOCC4)nc2c1)C3 for me?
Reply: 5

###

Test: CSF concentrations of ACI-3024 in MAD cohort MAD-HV3
Type: in vivo
Conditions: both sexes, human, CSF, oral; elderly subjects, multiple doses of 1400 mg QD (fed); read-out: CSF concentration as share of the corresponding plasma concentration
Description: Methods for measuring the amount of administered compound, such as ACI-3024, in CSF of a subject are well know in the art. As an example, CSF can be drawn by lumbar puncture and content of the administered compound can be analysed by a LC-MS/MS method, among other methods. Cohorts MAD-HV1 to MAD-HV3 comprised 10 elderly non-Japanese male or female subjects, 8 were treated with ACI-3024 and 2 were being given placebo. […]
MEASURED_QUANTITY: Kp

Ask: Can you look up the measured Kp of Fc1ccc2c3c([nH]c2c1)CCN(c1ccc2oc(N4CCOCC4)nc2c1)C3 for me?
Reply: 0.003 to 0.015

###

Assay: Toxicokinetics in the 4-week mouse toxicity study
Format: in vivo
Conditions: mouse, plasma; Day 28, 300 mg/kg oral, male CD-1 mice
MEASURED_QUANTITY: AUC(0-t) (µg·h/mL)
Express your answer in µg·h/mL, writing the number without its unit.

Ask: Can you look up the measured AUC(0-t) of Fc1ccc2c3c([nH]c2c1)CCN(c1ccc2oc(N4CCOCC4)nc2c1)C3 [ACI-3024] for me?
Reply: 386

###

Assay: Pharmacokinetics in SAD and MAD studies (plasma, urine)
Format: in vivo
Settings: both sexes, human, plasma, oral; fasting state, single or multiple doses; read-out: median time of maximum observed plasma concentration (Tmax)
MEASURED_QUANTITY: Tmax

Ask: Can you look up the measured Tmax of Fc1ccc2c3c([nH]c2c1)CCN(c1ccc2oc(N4CCOCC4)nc2c1)C3 for me?
Reply: 1.25 to 2.5 h

###

Assay: Pharmacokinetics in SAD and MAD studies (plasma, urine)
Assay type: in vivo
Details: male, human, plasma, oral; following single dose administration; read-out: geometric mean t1/2
Description: Secondary Objectives: • To assess the PK of ACI-3024 in plasma, urine, and cerebrospinal fluid (CSF). • To compare the plasma and urine PK parameters of ACI-3024 following single oral doses in the fed and fasting states. In each of Cohorts S1 to S5, 6 subjects (including 3 Japanese subjects in Cohorts S2 through S5) received ACI-3024 and 2 subjects (including 1 Japanese subject in Cohorts S2 through S5) received placebo. […]
MEASURED_QUANTITY: half-life

Ask: Can you look up the measured half-life of Fc1ccc2c3c([nH]c2c1)CCN(c1ccc2oc(N4CCOCC4)nc2c1)C3 for me?
Reply: 27.7 to 60.5 h

###

Experiment: Toxicokinetics in the 4-week mouse toxicity study
Format: in vivo
Details: mouse, plasma; Day 28, 300 mg/kg oral, female CD-1 mice
MEASURED_QUANTITY: Tmax (h)
Express your answer in h, writing the number without its unit.

Ask: Can you look up the measured Tmax of Fc1ccc2c3c([nH]c2c1)CCN(c1ccc2oc(N4CCOCC4)nc2c1)C3 for me?
Reply: 4
